The measurements presented in this section are drawn from paper PMC5340008.

# Measurement Target: TEM-1 β-lactamase (UniProt P62593 24-286)
# Sequence (P62593 24-286): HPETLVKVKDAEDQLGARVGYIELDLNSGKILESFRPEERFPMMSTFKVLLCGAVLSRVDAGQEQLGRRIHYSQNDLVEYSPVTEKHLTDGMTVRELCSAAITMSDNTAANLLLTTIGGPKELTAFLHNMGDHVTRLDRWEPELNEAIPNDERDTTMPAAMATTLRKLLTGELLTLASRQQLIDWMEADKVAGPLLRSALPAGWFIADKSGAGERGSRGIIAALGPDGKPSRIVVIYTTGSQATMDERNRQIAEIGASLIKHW
# Procedure Summary: β-lactamase inhibition assay (nitrocefin hydrolysis, Morrison tight-binding fit); increasing concentrations of BLIP incubated with 1 nM β-lactamase for 1 h at room temperature in 50 mM sodium phosphate pH 7.0; nitrocefin added at its Km, initial velocity at 482 nm; Ki calculated from Ki app
# Condition Parameters: both partners purified
Please respond with reported Ki for every item in the list.
Please respond with the number in nM and leave the unit unwritten.

Enquiry: Which measured Ki value corresponds to BLIP [change] (natural protein) AGVMTGAKFTQIQFGMTRQQVLDIAGAENCETGGSFGDSIHCRGHAAGDPYAYATFGFTSAAADAKVDSKSQEKLLAPSAPTLTLAKFNQVTVGMTRAQVLATVGQGSCTTWSEYYPAYPSTAGVTLSLSCFDVDGYSSTGFYRGSAHLWFTDGVLQGKRQWDLV ?
Return: 40

Enquiry: Name the recorded Ki for BLIP [change] (natural protein) AGVMTGAKFTQIQFGMTRQQVLDIAGAENCETGGSFGDSIHCRGHAAGDDYAYATFGFTSAAADAKVDSKSQEKLLAPSAPTLTLAKFNQVTVGMTRAQVLATVGQGSCTTWSEYYPAYPSTAGVTLSLSCFDVDGYSSTGFYRGSAHLWFTDGVLQGKRQWDLV .
Return: 160

Enquiry: Which Ki is listed for BLIP [change] (natural protein) AGVMTGAKFTQIQFGMTRQQVLDIAGAENCETGGSFGDSIHCRGHAAGDEYAYATFGFTSAAADAKVDSKSQEKLLAPSAPTLTLAKFNQVTVGMTRAQVLATVGQGSCTTWSEYYPAYPSTAGVTLSLSCFDVDGYSSTGFYRGSAHLWFTDGVLQGKRQWDLV ?
Return: 76
